Recorded values, source patent US20260130395A1.

So I've got a bunch of compounds here, and I need their Stability of Plant-Derived Cannabinoid Compounds in AB White, 8° C. values.
assay: Stability of cannabinoid compounds and Vitamin E components in Beverage 1 (AB White) by LCMSMS; assay type: physicochemical; conditions: AB White stored at 8° C.; 10 days
I'd appreciate it if you included the unit after the number.

Answered cases to consult:
[
  {
    "compound": "CCCCCc1cc2c(c(O)c1C(=O)O)[C@@H]1C=C(C)CC[C@H]1C(C)(C)O2 [D9 THCA, delta-9-tetrahydrocannabinolic acid]",
    "experimental.result": "0.960 µg/mL"
  },
  {
    "compound": "C=C(C)[C@@H]1CCC(C)=C[C@H]1c1c(O)cc(CCCCC)c(C(=O)O)c1O [CBDA, cannabidiolic acid]",
    "experimental.result": "1.76 µg/mL"
  },
  {
    "compound": "CCCc1cc(O)c2c(c1)OC(C)(C)[C@@H]1CCC(C)=C[C@@H]21 [THCV, delta-9-tetrahydrocannabivarin]",
    "experimental.result": "3.58 µg/mL"
  }
]

Prompt: What value of Stability of Plant-Derived Cannabinoid Compounds in AB White, 8° C. has been recorded for this entry: CCCCCc1cc(O)c(C/C=C(\C)CCC=C(C)C)c(O)c1 [CBG, cannabigerol]
Completion: 4.77 µg/mL

---

experiment: Stability of cannabinoid compounds and Vitamin E components in Beverage 2 (AB Red) by LCMSMS; format: physicochemical; conditions: stored at 8° C., 12 days
readout.type: Stability of Plant-Derived Cannabinoid Compounds in AB Red (µg/mL)
Give bare numbers, in µg/mL.

[
  {
    "molecule": "C=C(C)[C@@H]1CCC(C)=C[C@H]1c1c(O)cc(CCC)cc1O",
    "experimental.result": 0.198
  }
]

I would be grateful if you could provide Stability of Plant-Derived Cannabinoid Compounds in AB Red for each of the following entries.
1. CCCCCc1cc(O)c2c(c1)OC(C)(CCC=C(C)C)C=C2 (centres unmarked)
2. CCCCCc1cc(O)c2c(c1)OC(C)(C)c1ccc(C)cc1-2
3. CCCCCc1cc2c(c(O)c1C(=O)O)[C@@H]1C=C(C)CC[C@H]1C(C)(C)O2 [D9 THCA, delta-9-tetrahydrocannabinolic acid]
4. C=C(C)[C@@H]1CCC(C)=C[C@H]1c1c(O)cc(CCCCC)c(C(=O)O)c1O
5. CCCc1cc(O)c2c(c1)OC(C)(C)[C@@H]1CCC(C)=C[C@@H]21 [THCV, delta-9-tetrahydrocannabivarin]
6. CCCCCc1cc(O)c2c(c1)OC1(C)CCC3C1C2C3(C)C (centres unmarked)
7. CCCCCc1cc(O)c2c(c1)OC(C)(C)[C@@H]1CCC(C)=C[C@@H]21 [D9 THC, delta-9-tetrahydrocannabinol, reference compound]

Completion:
1. 0.285
2. 2.76
3. 1.32
4. 1.68
5. 3.25
6. 0.499
7. 12.9

---

assay: Stability of cannabinoid compounds and Vitamin E components in Beverage 2 (AB Red) by LCMSMS; type: physicochemical; conditions: stored at 8° C., 570 days
readout.type: Stability of Plant-Derived Cannabinoid Compounds in AB Red (µg/mL)
Give bare numbers, in µg/mL.

[
  {
    "molecule": "CCCCCc1cc2c(c(O)c1C(=O)O)[C@@H]1C=C(C)CC[C@H]1C(C)(C)O2 [D9 THCA, delta-9-tetrahydrocannabinolic acid]",
    "unit.abbrev": "µg/mL",
    "experimental.result": 1.24
  }
]

For every item below, please supply its Stability of Plant-Derived Cannabinoid Compounds in AB Red.
1. CCCCCc1cc(O)c2c(c1)OC(C)(C)[C@@H]1CCC(C)=C[C@@H]21 [D9 THC, delta-9-tetrahydrocannabinol, reference compound]
2. CCCCCc1cc(O)c2c(c1)OC1(C)CCC3C1C2C3(C)C (centres unmarked) [CBL, cannabicyclol]

Completion:
[11.8, 0.469]

I'm hoping you can list Stability of Plant-Derived Cannabinoid Compounds in AB Red for every molecule here, please.
1. C=C(C)[C@@H]1CCC(C)=C[C@H]1c1c(O)cc(CCCCC)c(C(=O)O)c1O [CBDA, cannabidiolic acid]
2. CCCCCc1cc(O)c2c(c1)OC(C)(C)c1ccc(C)cc1-2 [CBN, cannabinol]

Completion:
1: 1.54; 2: 2.58

---

assay: Stability of cannabinoid compounds and Vitamin E components in Beverage 2 (AB Red) by LCMSMS; assay type: physicochemical; details: stored at 8° C., 5 days
readout.type: Stability of Plant-Derived Cannabinoid Compounds in AB Red (µg/mL)
Numbers only, in µg/mL.

Illustrative cases are given below, each with its answer.
[
  {
    "compound": "CCCCCc1cc(O)c2c(c1)OC(C)(CCC=C(C)C)C=C2 (centres unmarked) [CBC, cannabichromene]",
    "experimental.result": 0.286
  },
  {
    "compound": "CCCCCc1cc(O)c2c(c1)OC(C)(C)[C@@H]1CCC(C)=C[C@@H]21 [D9 THC, delta-9-tetrahydrocannabinol, reference compound]",
    "experimental.result": 13.0
  },
  {
    "compound": "CCCCCc1cc(O)c2c(c1)OC1(C)CCC3C1C2C3(C)C (centres unmarked) [CBL, cannabicyclol]",
    "experimental.result": 0.501
  },
  {
    "compound": "CCCCCc1cc2c(c(O)c1C(=O)O)[C@@H]1C=C(C)CC[C@H]1C(C)(C)O2 [D9 THCA, delta-9-tetrahydrocannabinolic acid]",
    "experimental.result": 1.36
  },
  {
    "compound": "C=C(C)[C@@H]1CCC(C)=C[C@H]1c1c(O)cc(CCC)cc1O [CBDV, cannabidivarin]",
    "experimental.result": 0.198
  },
  {
    "compound": "CCCCCc1cc(O)c(C/C=C(\\C)CCC=C(C)C)c(O)c1 [CBG, cannabigerol]",
    "experimental.result": 4.75
  },
  {
    "compound": "C=C(C)[C@@H]1CCC(C)=C[C@H]1c1c(O)cc(CCCCC)c(C(=O)O)c1O [CBDA, cannabidiolic acid]",
    "experimental.result": 1.67
  }
]

Prompt: If you can, please state the reported Stability of Plant-Derived Cannabinoid Compounds in AB Red value of CCCc1cc(O)c2c(c1)OC(C)(C)[C@@H]1CCC(C)=C[C@@H]21 [THCV, delta-9-tetrahydrocannabivarin] .
Completion: 3.24

---

assay: Stability of cannabinoid compounds and Vitamin E components in Beverage 2 (AB Red) by LCMSMS; type: physicochemical; conditions: stored at 21-25° C., 30 days
For each of the compounds below, state its Stability of Plant-Derived Cannabinoid Compounds in AB Red.
Your reply should be a number followed by the unit it is expressed in.

Worked cases, answers included:
[
  {
    "compound": "CCCc1cc(O)c2c(c1)OC(C)(C)[C@@H]1CCC(C)=C[C@@H]21 [THCV, delta-9-tetrahydrocannabivarin]",
    "experimental.result": "3.15 µg/mL"
  },
  {
    "compound": "C=C(C)[C@@H]1CCC(C)=C[C@H]1c1c(O)cc(CCCCC)c(C(=O)O)c1O [CBDA, cannabidiolic acid]",
    "experimental.result": "1.68 µg/mL"
  },
  {
    "compound": "C=C(C)[C@@H]1CCC(C)=C[C@H]1c1c(O)cc(CCC)cc1O [CBDV, cannabidivarin]",
    "experimental.result": "0.20 µg/mL"
  }
]

Next:
Prompt: What does the record list as Stability of Plant-Derived Cannabinoid Compounds in AB Red for CCCCCc1cc2c(c(O)c1C(=O)O)[C@@H]1C=C(C)CC[C@H]1C(C)(C)O2 [D9 THCA, delta-9-tetrahydrocannabinolic acid] ?
Completion: 1.34 µg/mL

---

assay: Stability of cannabinoid compounds and Vitamin E components in Beverage 1 (AB White) by LCMSMS; format: physicochemical; settings: AB White stored at 8° C.; 150 days
Kindly state Stability of Plant-Derived Cannabinoid Compounds in AB White, 8° C. for each of the entries shown.
Numbers only, in µg/mL.

Consider the following items and state reported Stability of Plant-Derived Cannabinoid Compounds in AB White, 8° C. for each.
1. CCCCCc1cc(O)c2c(c1)OC(C)(C)[C@@H]1CCC(C)=C[C@@H]21 [D9 THC, delta-9-tetrahydrocannabinol, reference compound]
2. CCCCCc1cc(O)c(C/C=C(\C)CCC=C(C)C)c(O)c1 [CBG, cannabigerol]
3. C=C(C)[C@@H]1CCC(C)=C[C@H]1c1c(O)cc(CCC)cc1O [CBDV, cannabidivarin]
4. CCCCCc1cc(O)c2c(c1)OC(C)(C)c1ccc(C)cc1-2 [CBN, cannabinol]

Completion:
[12.07, 4.83, 0.150, 2.69]

---

assay: Stability of cannabinoid compounds and Vitamin E components in Beverage 1 (AB White) by LCMSMS; type: physicochemical; conditions: AB White stored at 8° C.; 5 days
Could you please report measured Stability of Plant-Derived Cannabinoid Compounds in AB White, 8° C. for the items listed next?
One number for each entry, in µg/mL.

Worked examples follow.
[
  {
    "compound": "C=C(C)[C@@H]1CCC(C)=C[C@H]1c1c(O)cc(CCCCC)cc1O [CBD, cannabidiol, reference compound]",
    "unit.abbrev": "µg/mL",
    "experimental.result": 28.61
  },
  {
    "compound": "C=C(C)[C@@H]1CCC(C)=C[C@H]1c1c(O)cc(CCC)cc1O",
    "unit.abbrev": "µg/mL",
    "experimental.result": 0.147
  },
  {
    "compound": "CCCCCc1cc(O)c2c(c1)OC1(C)CCC3C1C2C3(C)C (stereo not drawn)",
    "unit.abbrev": "µg/mL",
    "experimental.result": 0.552
  },
  {
    "compound": "CCCCCc1cc(O)c(C/C=C(\\C)CCC=C(C)C)c(O)c1",
    "unit.abbrev": "µg/mL",
    "experimental.result": 4.88
  },
  {
    "compound": "CCCCCc1cc(O)c2c(c1)OC(C)(C)c1ccc(C)cc1-2",
    "unit.abbrev": "µg/mL",
    "experimental.result": 2.76
  }
]

Prompt: Could you tell me which Stability of Plant-Derived Cannabinoid Compounds in AB White, 8° C. is on file for CCCc1cc(O)c2c(c1)OC(C)(C)[C@@H]1CCC(C)=C[C@@H]21 [THCV, delta-9-tetrahydrocannabivarin] ?
Completion: 3.58
